Recorded below: IC50, system Bone morphogenetic protein 1 (Homo sapiens).
QUANTITY KIND: IC50 (nM)

{"MOLECULE": "CC[C@@H](C)[C@H](NC(=O)C(CC(C)C)NC(=O)OCc1ccccc1)C(=O)N[C@@H](Cc1cscn1)C(=O)NO (some centres not stated)", "STUDY TARGET": "Bone morphogenetic protein 1 (Homo sapiens)", "IC50 [nM]": 110}
{"MOLECULE": "CC[C@H](C)[C@H](NS(=O)(=O)c1ccc(Br)c(Br)c1)C(=O)N[C@@H](CNC(=O)OCc1ccccc1)C(=O)NO", "STUDY TARGET": "Bone morphogenetic protein 1 (Homo sapiens)", "IC50 [nM]": 26}

P. CC[C@@H](C)[C@@H](NC(=O)OCc1ccccc1)C(=O)N[C@H](Cc1cscn1)C(=O)NO (stereo in doubt; form 2)
Q. O=C(NC(C(=O)N[C@H](Cc1c[nH]c2ccccc12)C(=O)NO)c1ccccc1)OCc1ccccc1 (some centres not stated)
R. CC[C@H](C)[C@@H](NC(=O)NCCc1ccccc1)C(=O)N[C@H](Cc1cc2ccccc2[nH]1)C(=O)NO
S. CC[C@@H](C)[C@@H](NC(=O)OCc1ccccc1)C(=O)N[C@H](Cc1ccc(Br)cc1)C(=O)NO
T. CC(C)C(NC(=O)OCc1ccccc1)C(=O)N[C@H](Cc1c[nH]c2ccccc12)C(=O)NO (some centres not stated)
Arrange the 5 molecules from largest to smallest IC50. Form field (ranking): labels in requested order.
R, T, Q, S, P
(R: 3600 nM, T: 1900 nM, Q: 1200 nM, S: 200 nM, P: 110 nM)

* * *

Recorded below: IC50, system Bone morphogenetic protein 1 (Homo sapiens, UniProt P13497).
QUANTITY KIND: IC50 (nM)

a. CC[C@@H](C)[C@H](NC(=O)C(Cc1ccccc1)NC(=O)OCc1ccccc1)C(=O)N[C@@H](Cc1cscn1)C(=O)NO (some centres undefined)
b. O=C(CCCNC(=O)OCc1ccccc1)N[C@@H](Cc1c[nH]c2ccccc12)C(=O)NO
Just curious, which one has the larger IC50 reading, a or b ? Identify your pick by its label.
b

P. CC[C@@H](C)[C@@H](NS(=O)(=O)C1=CCC(C)(Cl)C=C1C)C(=O)N[C@H](Cc1cscn1)C(=O)NO (some centres undefined)
Q. CC[C@@H](C)[C@@H](NC(=O)OCc1ccccc1)C(=O)N[C@H](Cc1ccc(Br)s1)C(=O)NO
Just curious, which one has the larger IC50 reading, P or Q ? Identify your pick by its label.
Q
(Q: 210 nM, P: 43 nM)

* * *

Target: Bone morphogenetic protein 1 (Homo sapiens, UniProt P13497)
Sequence (P13497 whole entry): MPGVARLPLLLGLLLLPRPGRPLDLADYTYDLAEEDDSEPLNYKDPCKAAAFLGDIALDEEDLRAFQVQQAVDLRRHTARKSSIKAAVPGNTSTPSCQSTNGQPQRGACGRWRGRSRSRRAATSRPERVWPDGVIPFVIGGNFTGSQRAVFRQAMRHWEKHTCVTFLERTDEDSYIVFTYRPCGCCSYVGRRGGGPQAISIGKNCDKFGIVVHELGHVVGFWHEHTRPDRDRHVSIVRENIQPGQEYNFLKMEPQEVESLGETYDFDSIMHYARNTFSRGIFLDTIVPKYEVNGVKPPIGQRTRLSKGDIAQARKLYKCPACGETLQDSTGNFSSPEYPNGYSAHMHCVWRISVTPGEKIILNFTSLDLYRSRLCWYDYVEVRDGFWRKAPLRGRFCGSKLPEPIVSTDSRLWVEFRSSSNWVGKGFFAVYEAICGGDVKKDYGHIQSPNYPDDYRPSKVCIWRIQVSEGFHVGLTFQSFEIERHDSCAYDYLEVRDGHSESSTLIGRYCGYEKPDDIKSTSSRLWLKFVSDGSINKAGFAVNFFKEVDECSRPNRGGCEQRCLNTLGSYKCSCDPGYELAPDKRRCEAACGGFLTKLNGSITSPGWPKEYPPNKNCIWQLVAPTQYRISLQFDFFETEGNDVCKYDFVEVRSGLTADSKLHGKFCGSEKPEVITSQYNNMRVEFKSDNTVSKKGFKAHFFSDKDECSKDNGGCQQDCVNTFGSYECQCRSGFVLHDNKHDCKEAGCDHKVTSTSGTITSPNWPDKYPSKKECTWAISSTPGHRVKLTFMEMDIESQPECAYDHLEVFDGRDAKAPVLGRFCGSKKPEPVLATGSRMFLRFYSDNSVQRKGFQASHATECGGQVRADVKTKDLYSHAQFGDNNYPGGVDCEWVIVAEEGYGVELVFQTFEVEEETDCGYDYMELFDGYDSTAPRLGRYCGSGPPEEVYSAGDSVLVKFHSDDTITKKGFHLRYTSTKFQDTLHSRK
Experiment: Inhibitory effect against Procollagen C-terminal proteinase
pIC50: −log10 of the molar value. Where a SMILES comes first, the peptide text is derived from it. [ ]: non-standard residue; d: D form. The star is where a group is joined. ξ: configuration not given here. ξW = NC(Cc1c[nH]c2ccccc12)C(=O)O; Cbz = O=C(OCc1ccccc1)*; NHOH = ON*
QUANTITY KIND: pIC50

A selection of reference data follows.
{"COMPOUND": "CC[C@@H](C)[C@@H](NC(=O)OCc1ccccc1)C(=O)NC(Cc1ccccc1Cl)C(=O)NO (some centres not stated)", "STUDY TARGET": "Bone morphogenetic protein 1 (Homo sapiens, UniProt P13497)", "pIC50": 6.72}
{"COMPOUND": "CC[C@H](C)[C@@H](Nc1cccc(C(F)(F)F)c1)C(=O)N[C@H](Cc1cc2ccccc2[nH]1)C(=O)NO", "STUDY TARGET": "Bone morphogenetic protein 1 (Homo sapiens, UniProt P13497)", "pIC50": 5.55}
{"COMPOUND": "CC[C@@H](C)[C@@H](NC(=O)OCc1ccc(Cl)c(Cl)c1)C(=O)N[C@H](Cc1cscn1)C(=O)NO", "STUDY TARGET": "Bone morphogenetic protein 1 (Homo sapiens, UniProt P13497)", "pIC50": 7.14}
{"COMPOUND": "CC[C@@H](C)[C@@H](NC(=O)OCc1ccccc1)C(=O)NCC(NC(=O)OCc1ccccc1)C(=O)NO (some centres not stated)", "STUDY TARGET": "Bone morphogenetic protein 1 (Homo sapiens, UniProt P13497)", "pIC50": 7.21}

P. CC(=O)N[C@@H](Cc1ccc(O)cc1)C(=O)N[C@@H](Cc1ccc(O)cc1)C(=O)NCC(=O)NO (Ac-Tyr-Tyr-Gly-{NHOH})
Q. O=C(NC(Cc1c[nH]c2ccccc12)C(=O)N[C@@H](Cc1c[nH]c2ccccc12)C(=O)NO)OCc1ccccc1 (some centres not stated) (Cbz-[ξW]-Trp-{NHOH})
Given the two records P and Q , choose the one whose pIC50 value is lower. Identify your pick by its label.
P

1. O=C(NC(Cc1c[nH]c2ccccc12)C(=O)NO)OCc1ccccc1 (configuration not stated)
2. CC[C@@H](C)[C@@H](NCN(Cc1ccc(F)cc1)C(=O)c1ccc(Br)cc1)C(=O)N[C@H](Cc1cscn1)C(=O)NO
3. O=C(N[C@H](Cc1ccccc1)C(=O)N[C@@H](Cc1c[nH]c2ccccc12)C(=O)NO)OCc1ccccc1
4. CC[C@@H](C)[C@@H](NC(=O)OCc1cc(Cl)cc(Cl)c1)C(=O)N[C@H](Cc1cscn1)C(=O)NO
5. CC[C@@H](C)[C@@H](NCN(Cc1ccc(F)cc1)C(=O)c1ccc(Cl)cc1)C(=O)N[C@H](Cc1cscn1)C(=O)NO
Arrange the 5 compounds from largest to smallest pIC50. Form field (ranking): labels in requested order.
5, 2, 4, 3, 1
(5: 7.30, 2: 7.05, 4: 6.82, 3: 4.74, 1: 4.17)
